# key: entry, value: MIC
Tested on: T. mentagrophytes
Test: Antifungal activity, MIC by disc (diffusion) method
Format: cell-based
Conditions: Trichophyton mentagrophytes, YMG agar, 24 hr at 28° C., read-out: MIC (minimum inhibitory concentration) T. mentagrophytes

Worked examples, 3 compounds total:
O=S1(=O)N=CC2=COc3ccccc3C2=N1    1 µg/mL
O=S1(=O)N=CC2=COc3ccc(F)cc3C2=N1    1 µg/mL
COc1ccc2c(c1)C=NS(=O)(=O)O2    2 µg/mL

Q: For T. mentagrophytes, provide MIC of O=S1(=O)N=Cc2cc(Br)ccc2O1 please.
Result: 1 µg/mL

Q: # repeat for CCC1OS(=O)(=O)N2OC12CC (stereo not drawn)
Result: 2 µg/mL

Q: # repeat for O=S1(=O)N=Cc2cc(Cl)ccc2O1
Result: 1 µg/mL

Q: # repeat for CC1=CC(c2ccccc2)=NS(=O)(=O)N1
Result: 2 µg/mL

Q: # repeat for O=S1(=O)N=C2C(=COc3ccc(Cl)cc32)C2ON21 (stereo not drawn)
Result: 1 µg/mL

====

# key: entry, value: MIC
Test system: T. mentagrophytes
Test: Antifungal activity, MIC by disc (diffusion) method
Type: cell-based
Details: Trichophyton mentagrophytes, YMG agar, 24 hr at 28° C., read-out: MIC (minimum inhibitory concentration) T. mentagrophytes
Could you give me the number in µg/mL? Just the number is fine.

O=S1(=O)Oc2c(Cl)cc(Cl)cc2C2ON21 (stereo not shown) [II-1h]    1
O=S1(=O)Oc2ccc(F)cc2C2ON21 (stereo not shown) [II-1a]    1
O=[N+]([O-])c1ccc2c(c1)C1ON1S(=O)(=O)O2 (stereo not shown) [II-1e]    1
O=S1(=O)N=Cc2nccn21 [I-5a]    2
CCC1=NS(=O)(=O)OC1CC (stereo not shown) [I-3b]    2

Q: // lookup MIC for N#Cc1ccc2c(c1)C=NS(=O)(=O)O2 [I-1g]
Result: 1

Q: # repeat for CC1=NS(=O)(=O)Oc2ccccc21 [I-1j]
Result: 2

Q: # repeat for CCCCCCCCN1CC2(c3ccccc3)ON2S1(=O)=O (stereo not shown) [II-3e]
Result: 2

Q: # repeat for CC1=NS(=O)(=O)Nc2ccccc21 [I-1k]
Result: 2

Q: # repeat for CC1=CC2(c3ccccc3)ON2S(=O)(=O)N1 (stereo not shown) [II-2c]
Result: 2
